protocol_notes: Example 3 urinary pharmacokinetics, normal hepatic function vs hepatic impairment
Format: in vivo, human
measurement_conditions: both sexes, human, urine, other: intranasal (drug-soaked pledgets in the nasal cavity), 160 mg, Normal hepatic function, Table 26; read-out: CLr Mean (converted)
test_readout: CL renal (mL/min)

INSERT INTO assay_data (compound, quantitative_result) VALUES
  ('COC(=O)[C@H]1[C@@H](OC(=O)c2ccccc2)C[C@@H]2CC[C@H]1N2C [Cocaine, cocaine, reference compound]', 29.8);

* * *

protocol_notes: Example 1 single-dose plasma pharmacokinetics after intranasal administration
Assay type: in vivo, human
measurement_conditions: male, human, plasma, inhaled or intranasal, 160 mg, Male healthy subjects; single intranasal 160 mg cocaine HCl; plasma; read-out: AUClast (Median)
Procedure: Single-dose plasma and urinary pharmacokinetics of the pharmaceutical composition following intranasal administration was characterized in this study. This was a single-dose study in 30 healthy volunteers. […] The effect of gender on Cmax, Tmax, AUClast, AUCinf, and t1/2 was determined. The effects of age, body weight, and BMI on AUClast were determined.
test_readout: AUC(0-t) (ng·h/mL)

INSERT INTO results (compound, quantitative_result) VALUES
  ('COC(=O)[C@H]1[C@@H](OC(=O)c2ccccc2)C[C@@H]2CC[C@H]1N2C [Cocaine, cocaine, reference compound]', 28.5);
